Test: Solubility in bio-relevant media (FaSSIF, FeSSIF, SGF)
Format: physicochemical
Settings: Simulated Gastric Fluid (SGF), simulated gastric fluid, thermodynamic from solid; SGF, 2 h
measurementKind: solubility at 2 h (µg/mL)
Report the value in µg/mL with no unit label.

Which solubility at 2 h value belongs to [2H]C([2H])([2H])NC(=O)c1nnc(NC(=O)C2CC2)cc1Nc1ncc(Cl)cc1S(C)(=O)=O [Form III] ?
8.2

----------
Assay: Solubility in bio-relevant media (FaSSIF, FeSSIF, SGF)
Format: physicochemical
Settings: thermodynamic from solid; FeSSIF, 0.5 h
measurementKind: solubility at 0.5 h (µg/mL)
API: value field is a number in µg/mL; no unit string.

Give its solubility at 0.5 h value. Item: [2H]C([2H])([2H])NC(=O)c1nnc(NC(=O)C2CC2)cc1Nc1ncc(Cl)cc1S(C)(=O)=O [Form III]
2.6

----------
Assay: Dynamic vapor sorption (DVS) analysis
Assay type: physicochemical
Conditions: at 90% RH
measurementKind: hygroscopic weight gain / water uptake (DVS)

# get_value(readout='hygroscopic weight gain / water uptake (DVS)', item= [2H]C([2H])([2H])NC(=O)c1nnc(NC(=O)C2CC2)cc1Nc1ncc(Cl)cc1S(C)(=O)=O [Form III] )
0.13%

----------
Assay: Solubility in bio-relevant media (FaSSIF, FeSSIF, SGF)
Format: physicochemical
Conditions: bio-relevant media (FaSSIF, FeSSIF, SGF), fassgf or other biorelevant, thermodynamic from solid
Excerpt: High Performance Liquid Chromatography (HPLC): a representative HPLC method is shown below, which can be used, for example, to analyze the purity, solubility, and stability of Compound 1 herein.
measurementKind: solubility

If you can, please state the reported solubility value of [2H]C([2H])([2H])NC(=O)c1nnc(NC(=O)C2CC2)cc1Nc1ncc(Cl)cc1S(C)(=O)=O [sulfate Form B] .
< 20 µg/mL

----------
Assay: Solubility in bio-relevant media (FaSSIF, FeSSIF, SGF)
Assay type: physicochemical
Settings: Simulated Gastric Fluid (SGF), simulated gastric fluid, thermodynamic from solid; SGF, 0.5 h
measurementKind: solubility at 0.5 h (µg/mL)
Field: numeric (µg/mL). Do not append units.

# lookup: solubility at 0.5 h of [2H]C([2H])([2H])NC(=O)c1nnc(NC(=O)C2CC2)cc1Nc1ncc(Cl)cc1S(C)(=O)=O [Form III]
7.3

----------
Test: Solubility in bio-relevant media (FaSSIF, FeSSIF, SGF)
Assay type: physicochemical
Details: thermodynamic from solid; FeSSIF, 24 h
measurementKind: solubility at 24 h (µg/mL)
Numeric only. Scale: µg/mL

For the compound [2H]C([2H])([2H])NC(=O)c1nnc(NC(=O)C2CC2)cc1Nc1ncc(Cl)cc1S(C)(=O)=O [Form III] , what solubility at 24 h is on record?
4.1

----------
Assay: Solubility in bio-relevant media (FaSSIF, FeSSIF, SGF)
Assay type: physicochemical
Conditions: thermodynamic from solid; FaSSIF, 24 h
measurementKind: solubility at 24 h (µg/mL)
Please state the figure in µg/mL; there is no need to write the unit.

Consider the compound [2H]C([2H])([2H])NC(=O)c1nnc(NC(=O)C2CC2)cc1Nc1ncc(Cl)cc1S(C)(=O)=O [Form III] and give its measured solubility at 24 h.
1.3

----------
Assay: Solubility in bio-relevant media (FaSSIF, FeSSIF, SGF)
Assay type: physicochemical
Conditions: thermodynamic from solid; FaSSIF, 0.5 h
Source text: High Performance Liquid Chromatography (HPLC): a representative HPLC method is shown below, which can be used, for example, to analyze the purity, solubility, and stability of Compound 1 herein.
measurementKind: solubility at 0.5 h (µg/mL)
Kindly answer with a numeric value in µg/mL, unit omitted.

Tell me the measured solubility at 0.5 h of [2H]C([2H])([2H])NC(=O)c1nnc(NC(=O)C2CC2)cc1Nc1ncc(Cl)cc1S(C)(=O)=O [Form III] , please.
1.1
